Every entry's value here was drawn from patent US11834424B2.

# experiment-description: Pharmacokinetics (plasma and brain levels) in ICR (CD-1) mice
# Assay type: in vivo
# experimental-context: male, ICR (CD-1), mouse, plasma, iv, 1 mg/kg, i.v. 1 mg/kg, mouse plasma, 1.00 h; read-out: Conc. in plasma, Mean
measured-parameter: concentration at 1 h
Answer format: number, then unit.

**Query** Which value of concentration at 1 h has been reported for CC(=O)Nc1ccc(C2=Nc3ccc(Cl)cc3OC2)cc1 [CA77, reference compound] in the records?
**Result** 15.4 ng/mL

**Query** Which value of concentration at 1 h has been reported for CC(=O)Nc1ccc(-c2cnc3cc(Cl)ccc3n2)cc1 [CA77.1] in the records?
**Result** 91 ng/mL

###

# experiment-description: Pharmacokinetics (plasma and brain levels) in ICR (CD-1) mice
# Format: in vivo
# experimental-context: male, ICR (CD-1), mouse, brain/plasma, iv, 1 mg/kg, i.v. 1 mg/kg, mouse, 0.083 h; read-out: Brain/Plasma ratio, Mean
measured-parameter: Kp at 0.083 h
Give a plain numeric answer without units written out.

**Query** Which value of Kp at 0.083 h has been reported for CC(=O)Nc1ccc(C2=Nc3ccc(Cl)cc3OC2)cc1 [CA77, reference compound] in the records?
**Result** 71.2

**Query** Which value of Kp at 0.083 h has been reported for CC(=O)Nc1ccc(-c2cnc3cc(Cl)ccc3n2)cc1 in the records?
**Result** 5.64

###

# experiment-description: Pharmacokinetics (plasma and brain levels) in ICR (CD-1) mice
# Format: in vivo
# experimental-context: male, mouse, plasma, po; p.o. 10 mg/kg, ICR (CD-1) mice; read-out: MRTINF_obs
measured-parameter: MRT inf (h)
Your answer is read as h, so omit the unit and give the number.

**Query** Which value of MRT inf has been reported for CC(=O)Nc1ccc(-c2cnc3cc(Cl)ccc3n2)cc1 in the records?
**Result** 3
